Recorded values, source paper PMC6509406.

Measured Hill coeff of individual entries
target: DgcA (CC3285) diguanylate cyclase (Caulobacter crescentus); test: FRET-based DGC activity assay, dose-response; format: biochemical; conditions: Table 2; from fitting the concentration-response curves

Before answering, review these 8 worked examples.
- smiles_representation: "O=C(OCC(=O)N1CCCC1=O)c1ccc2ncoc2c1"
  measured_value: "2.35 ± 0.82"
- smiles_representation: "O=C(OCC(=O)N1CCCC1=O)c1ccccc1"
  measured_value: "2.02 ± 0.19"
- smiles_representation: "O=C(OCC(=O)N1CCCC1=O)c1ccc([N+](=O)[O-])cc1"
  measured_value: "2.01 ± 0.18"
- smiles_representation: "O=C(OCC(=O)N1CCCC1=O)c1ccc2nccnc2c1"
  measured_value: "2.22 ± 0.16"
- smiles_representation: "CN(C)c1ccc(C(=O)OCC(=O)N2CCCC2=O)cc1"
  measured_value: "2.51 ± 0.68"
- smiles_representation: "Cc1nc2ccc(C(=O)OCC(=O)N3CCCC3=O)cc2s1"
  measured_value: "2.72 ± 1.28"
- smiles_representation: "O=C(OCC(=O)N1CCCC1=O)c1ccc2cnccc2c1"
  measured_value: "2.06 ± 0.15"
- smiles_representation: "O=C(OCC(=O)N1CCCC1=O)c1ccc2[nH]ccc2c1"
  measured_value: "2.37 ± 0.30"

I am curious: what Hill coeff value has been reported for O=C(OCC(=O)N1CCCC1=O)c1ccc2occc2c1 ?
2.05 ± 0.12

Moving on to the next compound: Cn1cnc2cc(C(=O)OCC(=O)N3CCCC3=O)ccc21
1.52 ± 0.28
